Tested on: M14 melanoma
Assay: NCI tumour cell line growth inhibition, 48 h; in the data active = GI50 below about 0.43 µM; inactive = the rest
Outcomes: active, inactive

MOL_SMILES	ASSIGNED_CLASS
O=C([CH-]C(=O)c1ccccc1)c1ccccc1.[CH2-]C.[CH2-]C.[Tl+3]	inactive
COc1ccc([C@H]2c3[nH]c4ccccc4c3C[C@H]3C(=O)N(CCCCCCC(=O)NO)CC(=O)N23)cc1	inactive
COc1ccc(-c2nn(-c3cccc(Cl)c3)cc2-c2c(C#N)c(=O)n3[nH]c(-c4ccc(C)o4)nc3c2C#N)cc1	inactive
C=C(c1ccc(C(=O)NCCCn2ccnc2)cc1)c1cc2c(cc1C)C(C)(C)CCC2(C)C	active
